target: UniProt:P61073; assay: Radioligand [125I]SDF-1α binding to hCXCR4-transfected HEK293 membrane; conditions: relative to compound 18
Sequence (P61073 whole entry): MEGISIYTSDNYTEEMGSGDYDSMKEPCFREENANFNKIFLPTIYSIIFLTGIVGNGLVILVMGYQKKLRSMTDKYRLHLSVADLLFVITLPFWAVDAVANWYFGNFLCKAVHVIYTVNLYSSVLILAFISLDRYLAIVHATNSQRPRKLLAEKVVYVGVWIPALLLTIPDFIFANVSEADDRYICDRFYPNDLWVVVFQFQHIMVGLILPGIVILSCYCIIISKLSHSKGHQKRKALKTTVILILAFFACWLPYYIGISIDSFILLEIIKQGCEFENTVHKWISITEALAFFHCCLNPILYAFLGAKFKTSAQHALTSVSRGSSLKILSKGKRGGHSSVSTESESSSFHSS
Reported fold decrease in CXCR4 binding affinity compared to compound 18 values follow for various compounds

• Cn1cnc2c(NCc3ccc(CNCCCNC4CCCCC4)cc3)nc(N3CCNCC3)nc21 = 4−5 fold

Entry c1nc2c(NCc3ccc(CNCCCNC4CCCCC4)cc3)nc(N3CCC(C4CCNCC4)CC3)nc2[nH]1 ; fold decrease in CXCR4 binding affinity compared to compound 18 = 2−3 fold

Entry c1nc2c(NCc3ccc(CNCCCNC4CCCCC4)cn3)nc(N3CCNCC3)nc2[nH]1 ; fold decrease in CXCR4 binding affinity compared to compound 18 = 2 fold

----------
assay: Cytotoxicity assay; assay type: cell-based, human; conditions: human, CEM cells (T-lymphoblast leukemia)
Reported selectivity ratio at 72 h values follow for various molecules

- c1nc2c(NCc3ccc(CNCCCNC4CCCCC4)cc3)nc(N3CCNCC3)nc2[nH]1 [Compound 18]: > 25000
- c1cc(CNCCCNC2CCCCC2)cc(CNc2nc(N3CCNCC3)nc3[nH]cnc23)c1 [Compound 25]: > 83300

Could you now consider this next molecule?
Entry c1nc2c(NCc3cncc(CNCCCNC4CCCCC4)c3)nc(N3CCNCC3)nc2[nH]1 [Compound 27] ; selectivity ratio at 72 h = > 8770

----------
assay: Cytotoxicity assay; type: cell-based, human; details: human, CEM cells (T-lymphoblast leukemia)
quantity name: selectivity ratio at 72 h

* c1nc2c(NCc3ccc(CNCCCNC4CCCCC4)cc3)nc(N3CCC(C4CCNCC4)CC3)nc2[nH]1 | > 593
* c1nc2c(NCc3ccc(CNCCCNC4CCCCC4)cn3)nc(N3CCNCC3)nc2[nH]1 | > 11900

Could you now consider this next compound?
Entry c1cc(CNCCCNC2CCCCC2)nc(CNc2nc(N3CCNCC3)nc3[nH]cnc23)c1 ; selectivity ratio at 72 h = > 20000
